systemTested: Cytochrome P450 2D6 (Homo sapiens) (UniProt P10635)
Sequence (P10635 whole entry, looked up): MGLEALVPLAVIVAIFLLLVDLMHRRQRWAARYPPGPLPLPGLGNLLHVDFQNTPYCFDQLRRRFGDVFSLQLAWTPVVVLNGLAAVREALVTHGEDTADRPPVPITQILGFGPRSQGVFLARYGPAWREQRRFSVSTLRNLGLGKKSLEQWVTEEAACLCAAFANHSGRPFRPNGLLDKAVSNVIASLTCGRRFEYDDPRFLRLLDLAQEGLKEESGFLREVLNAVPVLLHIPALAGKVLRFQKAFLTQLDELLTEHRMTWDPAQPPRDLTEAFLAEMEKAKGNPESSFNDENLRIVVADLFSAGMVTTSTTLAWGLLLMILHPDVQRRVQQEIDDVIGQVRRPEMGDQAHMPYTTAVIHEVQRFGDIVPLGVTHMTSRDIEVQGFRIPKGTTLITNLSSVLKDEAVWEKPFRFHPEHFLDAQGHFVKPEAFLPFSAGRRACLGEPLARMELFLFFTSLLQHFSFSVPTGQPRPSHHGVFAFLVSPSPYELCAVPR
testSummary: Cytochrome panel assay with activity outcomes
details: recombinant CYP, pro-luciferin dealkylation, luminescence, p450-cyp2d6; series mostly up to 57.1 µM
The campaign covered roughly 16,000 compounds. About 2,600 (16%) were called active. Another 20% or so got no clear call; they are omitted. Calls come from the whole dose curve; as a rule, active = well fitted curve in the direction sought with a large enough effect; inconclusive = small, poorly fitted or top-dose-only effect, or effect the other way; inactive = no such curve, though single readings can be large or run the other way. Not all results are given here.
Result category, one only: active, inactive

Solved entries (count: 5):
| molecule | classification |
| --- | --- |
| O=C(NCc1ccccc1)c1ccc2c(c1)C(=O)N(CC1CCCO1)C2=O (stereo not given) | inactive |
| O=C(Nc1ccc(-c2csc(-c3ccccc3)n2)cc1)c1ccccc1Cl | inactive |
| O=S(=O)(C=C(c1ccccc1)c1ccccc1)c1ccccc1 | inactive |
| CN(CCc1ccc(Cl)c(Cl)c1)C[C@@H](O)COc1ccc(NS(C)(=O)=O)cc1 | active |
| CCOC(=O)c1c(-c2ccc(C)cc2)csc1NC(=O)C1CC=CCC1C(=O)O (stereo not given) | inactive |

I'd appreciate the recorded outcome for `CC1CCN(C(=O)Nc2ccc3nsnc3c2)CC1` from this test.
inactive

----------
systemTested: Cytochrome P450 2D6 (Homo sapiens) (UniProt P10635)
testSummary: Cytochrome panel assay with activity outcomes
details: recombinant CYP, pro-luciferin dealkylation, luminescence, p450-cyp2d6; series mostly up to 57.1 µM
The whole screen tested about 16,000 compounds, of which about 2,600 (16%) were called active. Another 20% or so got no clear call; they are omitted. A selection follows.
quantity: AC50

| smilesData | systemTested | AC50 |
| --- | --- | --- |
| COCCCCC(=NOCCN)c1ccc(C(F)(F)F)cc1 | Cytochrome P450 2D6 (Homo sapiens) (UniProt P10635) | 3.98 µM (active) |
| CCCOC(=O)c1ccc(NC(=O)c2cn(CC)c3nc(C)ccc3c2=O)cc1 | Cytochrome P450 2D6 (Homo sapiens) (UniProt P10635) | inactive |
| Cc1cc(C)n(-c2nc(NC(C)C)nc(NC(C)C)n2)n1 | Cytochrome P450 2D6 (Homo sapiens) (UniProt P10635) | inactive |
| COc1ccc(NC(=O)N2CC3(CCN(S(=O)(=O)c4ccccc4)CC3)C2)cc1 | Cytochrome P450 2D6 (Homo sapiens) (UniProt P10635) | inactive |
| COc1ccc(-n2c3c(c(=O)[nH]c2=O)C(C(F)(F)F)(C(F)(F)F)N=C(CC(C)C)N3)cc1 | Cytochrome P450 2D6 (Homo sapiens) (UniProt P10635) | inactive |
| Cc1cc(N)n(-c2ccccc2)n1 | Cytochrome P450 2D6 (Homo sapiens) (UniProt P10635) | inactive |
| Cc1nn(-c2ccccc2)c(-c2ccccc2)c1C(=O)O | Cytochrome P450 2D6 (Homo sapiens) (UniProt P10635) | inactive |
| C[C@@H]1O[C@H](O[C@@H]2[C@@H](Oc3cc(O)c4c(c3)O[C@H](c3ccc(O)cc3)CC4=O)O[C@@H](CO)[C@@H](O)[C@H]2O)[C@@H](O)[C@H](O)[C@@H]1O | Cytochrome P450 2D6 (Homo sapiens) (UniProt P10635) | inactive |
| C[C@H](O)[C@H](O)[C@@H]1CNc2nc(N)[nH]c(=O)c2N1 | Cytochrome P450 2D6 (Homo sapiens) (UniProt P10635) | inactive |
| Fc1ccc2c(c1)C(c1ccncc1)=NNC(c1ccc(Cl)cc1)=N2 | Cytochrome P450 2D6 (Homo sapiens) (UniProt P10635) | 0.398 µM (active) |

Summary for this molecule, `CCc1ccccc1N1C(=O)c2cccc3c(N4CCOCC4)c([N+](=O)[O-])cc(c23)C1=O` : AC50 is inactive

Summary for this molecule, `Nc1c2c(=O)oc(-c3ccccc3)cc2nn1-c1ccccc1` : AC50 is 5.01 µM (active)

Summary for this molecule, `CC(C)(O)c1cn(-c2nonc2N)nn1` : AC50 is inactive

Summary for this molecule, `O=S(=O)(c1ccccc1)N1CCC[C@@]2(CCN(Cc3nccs3)C2)C1` : AC50 is 2.51 µM (active)

Summary for this molecule, `CCC(=O)O[C@H](CC(=O)O)C[N+](C)(C)C` : AC50 is inactive

Summary for this molecule, `O=S(=O)(c1ccccc1)N1CCC2(CCCN(Cc3nccs3)C2)CC1` : AC50 is inactive

Summary for this molecule, `CC(C)CN1CC[C@@]2(CCCN(C(=O)c3cc(C(F)(F)F)cc(C(F)(F)F)c3)C2)C1` : AC50 is inactive

Summary for this molecule, `CN1CCC2(CC1)CCN(S(=O)(=O)c1ccccc1)CC2` : AC50 is inactive

Summary for this molecule, `COc1cccc(Nc2ncc3ncc(=O)n(CCC#N)c3n2)c1` : AC50 is inactive

Summary for this molecule, `CC(C)NC(=O)N1CCC2(CC1)CCN(C(=O)c1cc(C(F)(F)F)cc(C(F)(F)F)c1)CC2` : AC50 is inactive

Summary for this molecule, `O=S1(=O)C=C(N2CCOCC2)c2ccccc21` : AC50 is inactive

----------
systemTested: Cytochrome P450 2D6 (Homo sapiens) (UniProt P10635)
testSummary: Cytochrome panel assay with activity outcomes
details: recombinant CYP, pro-luciferin dealkylation, luminescence, p450-cyp2d6; series mostly up to 57.1 µM
Protocol: The P450 gene superfamily is involved in the metabolism and clearance of xenobiotics. This assay used various human CYP P450 isozymes to measure the dealkylation of various pro-luciferin substrates to luciferin. The luciferin is then measured by luminescence after the addition of a luciferase detection reagent. […] Inhibitors and some substrates limit the production of luciferin, and decrease measured luminescence. […] 8, Detection, 1 sec, ViewLux luminescent read […]
Hit rate of the full screen: of about 16,000 compounds, about 2,600 (16%) were called active. Not shown: some 20% with an inconclusive outcome. Calls come from the whole dose curve; as a rule, active = well fitted curve in the direction sought with a large enough effect; inconclusive = small, poorly fitted or top-dose-only effect, or effect the other way; inactive = no such curve, though single readings can be large or run the other way. The list is a sample of the results.
Result category, one only: yes (1) for active, no (0) for inactive

Solved entries (count: 3):
| molecule | classification |
| --- | --- |
| O=[N+]([O-])c1cccc(-c2nc(-c3cccs3)c(-c3cccs3)[nH]2)c1 | yes (1) |
| c1ccc(-c2nc(-c3cccs3)[nH]c2-c2ccccc2)cc1 | no (0) |
| O=S(=O)(/N=C(\Sc1ccccc1)c1ccccc1)c1ccc(Cl)cc1 | no (0) |

I'd appreciate the recorded outcome for `COCCn1c(=O)c(-c2ccc(OC)cc2)nc2cnc(N3CCOCC3)nc21` from this test.
no (0)

I'd appreciate the recorded outcome for `C(/C=C/c1ccco1)=N/N1CCN(c2ccccc2)CC1` from this test.
no (0)

I'd appreciate the recorded outcome for COc1ccc(NC(=O)CC2C(=O)N(c3cccc(OC)c3)C(=O)N2C2CCCCC2)cc1 (stereo not given) from this test.
no (0)

----------
systemTested: Cytochrome P450 2D6 (Homo sapiens)
testSummary: Cytochrome panel assay with activity outcomes
details: recombinant CYP, pro-luciferin dealkylation, luminescence, p450-cyp2d6; series mostly up to 57.1 µM
About 2,600 (16%) of roughly 16,000 compounds were called active. About 20% were inconclusive and are not listed. Calls come from the whole dose curve; as a rule, active = well fitted curve in the direction sought with a large enough effect; inconclusive = small, poorly fitted or top-dose-only effect, or effect the other way; inactive = no such curve, though single readings can be large or run the other way. Not all results are given here.
Result category, one only: active, inactive

Solved entries (count: 2):
| molecule | classification |
| --- | --- |
| O=C(CSc1nc2ccccc2c(=O)n1CCCC(=O)N1CCCC1)NCc1ccco1 | inactive |
| CCOC(=O)CSc1nc2ccccc2c(=O)n1CC1CCC(C(=O)NCc2ccco2)CC1 (stereo not given) | inactive |

Alright, here's another molecule for you.
I'd appreciate the recorded outcome for `CCc1ccc(NC(=O)CSc2nc3cc(C(=O)OC)ccc3c(=O)n2Cc2ccco2)cc1` from this test.
inactive

----------
systemTested: Cytochrome P450 2D6 (Homo sapiens) (UniProt P10635)
testSummary: Cytochrome panel assay with activity outcomes
details: recombinant CYP, pro-luciferin dealkylation, luminescence, p450-cyp2d6; series mostly up to 57.1 µM
The campaign covered roughly 16,000 compounds. About 2,600 (16%) were called active. Another 20% or so got no clear call; they are omitted. Calls come from the whole dose curve; as a rule, active = well fitted curve in the direction sought with a large enough effect; inconclusive = small, poorly fitted or top-dose-only effect, or effect the other way; inactive = no such curve, though single readings can be large or run the other way. A selection follows.
Result category, one only: active, inactive

Solved entries (count: 8):
| compound | classification |
| --- | --- |
| CCOC(=O)CSc1nnc(CSc2nc3sc4c(c3c(=O)[nH]2)CCCC4)n1-c1ccccc1 | inactive |
| Cn1cccc1C(=O)N1CCC[C@@]2(CCN(c3ccccn3)C2)C1 | inactive |
| Cc1noc(C)c1-c1cc(N2CCN(C)CC2)ncn1 | inactive |
| S=C(Nc1ccccc1)N1CCCCC1 | inactive |
| N[C@@H](CSS(=O)(=O)O)C(=O)O | inactive |
| COc1ccc(CNc2ncncc2-c2ccc(N(C)C)cc2)c(OC)c1 | active |
| CCOC(=O)N1CCC(NC(=O)c2cc(S(=O)(=O)N3CCCC3)cn2C)CC1 | inactive |
| CC(=O)Nc1cc(C(F)(F)F)ccc1Oc1cccc(Br)c1 | active |

I'd appreciate the recorded outcome for `O=C(COc1ccc([N+](=O)[O-])cc1)NCc1ccccc1` from this test.
inactive

I'd appreciate the recorded outcome for `O=C(COc1ccccc1-c1ccccc1)N/N=C/c1cccc2ccccc12` from this test.
inactive

I'd appreciate the recorded outcome for `CCc1nnc2sc(-c3ccc(NC(=O)c4ccco4)cc3)nn12` from this test.
inactive

I'd appreciate the recorded outcome for `Cc1nc(SCC(=O)Nc2c(C)n(C)n(-c3ccccc3)c2=O)nc(C)c1C` from this test.
inactive

I'd appreciate the recorded outcome for `CSc1nc2nc3c(c(=O)n2[nH]1)CN(Cc1ccccc1)CC3` from this test.
inactive

I'd appreciate the recorded outcome for `COc1ccc(C(=O)N/N=C(\C)Cn2nc([N+](=O)[O-])cc2C)cc1` from this test.
inactive

I'd appreciate the recorded outcome for CC1CN(C(=O)c2cc3c(s2)CCC3)CC(C)O1 (stereo not drawn) from this test.
inactive

Values were extracted from PubChem BioAssay AID1851.
